Values were extracted from paper PMC6099623.

- Test system: breast epithelial cell line (MCF-10A)
- Run description: Crystal violet cytotoxicity towards nontumorigenic MCF-10A
- Type: cell-based, human
- Measurement setup: Homo sapiens, MCF-10A; nontumorigenic cells; mean ± S.D. of three separate experiments
Assay metric: pIC50
Give only the number. pIC50 is defined as minus log10 of concentration in molar units.

Recorded pIC50 for COc1ccc2c(c1)C(=c1sc3nc4ccccc4n3c1=O)C(=O)N2 on breast epithelial cell line (MCF-10A) was 3.74

Observed pIC50 on breast epithelial cell line (MCF-10A), entry Cc1cc(C)c2c(c1)C(=C1SC(=Nc3ccccc3)N(c3ccccc3)C1=O)C(=O)N2 , equals 3.85

# lookup: O=C1Nc2ccc(Cl)cc2C1=C1SC(=Nc2ccccc2)N(c2ccccc2)C1=O on breast epithelial cell line (MCF-10A), pIC50 = 3.95

Here O=C1Nc2ccc(Br)cc2C1=C1SC(=Nc2ccccc2)N(c2ccccc2)C1=O was tested on breast epithelial cell line (MCF-10A), and its pIC50 came to 4.09
